MEASUREMENT_NOTES: AUC (0 to infinity) in fasted C57BL/6 mouse at 3 mg/kg, iv by LC-MS/MS analysis
Type: ADME, organism-based
Set-up: time infinity, dose 3 mg/kg, route iv
CONDITION_PARAMETERS: in vivo
ASSAY_READOUT: AUC(0-inf)

Incoming: Report AUC(0-inf) for CC(=O)Nc1ccc(Nc2ncnc(NCCC(=O)OC(C)(C)C)n2)cc1
Outgoing: 448 ng·h/mL

====

TARGET_OR_SYSTEM: UniProtKB P70180
Sequence (P70180 whole entry): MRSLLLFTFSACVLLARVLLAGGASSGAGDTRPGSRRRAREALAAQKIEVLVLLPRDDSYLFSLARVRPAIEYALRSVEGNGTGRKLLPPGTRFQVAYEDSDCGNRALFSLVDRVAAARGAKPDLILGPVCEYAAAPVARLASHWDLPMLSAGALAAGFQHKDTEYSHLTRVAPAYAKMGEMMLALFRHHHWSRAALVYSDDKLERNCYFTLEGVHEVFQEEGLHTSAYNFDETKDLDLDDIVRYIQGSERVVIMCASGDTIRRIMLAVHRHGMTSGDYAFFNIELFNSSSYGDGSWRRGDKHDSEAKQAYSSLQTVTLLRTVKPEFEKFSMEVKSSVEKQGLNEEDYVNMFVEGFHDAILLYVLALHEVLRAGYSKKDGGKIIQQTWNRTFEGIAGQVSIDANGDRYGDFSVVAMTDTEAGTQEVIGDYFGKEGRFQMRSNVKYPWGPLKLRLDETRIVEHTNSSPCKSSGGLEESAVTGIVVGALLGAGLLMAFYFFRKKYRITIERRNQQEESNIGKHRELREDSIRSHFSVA
MEASUREMENT_NOTES: Agonist activity at NPRC in wild type mouse mesenteric arteries assessed as vasorelaxation by Organ bath assay
Format: tissue-based, Artery
ASSAY_READOUT: EC50
Please provide the amount together with its unit, number first.

STRUCTURE	EC50
CC(=O)Nc1ccc(Nc2ncnc(NCCC(=O)OC(C)(C)C)n2)cc1	1580 nM

Pending molecule:
Incoming: Report EC50 for COC(=O)[C@H](CC(C)C)Nc1nc(Cl)nc(N[C@H]2CC[C@H](Nc3nc(Cl)nc(N[C@@H](CC(C)C)C(=O)OC)n3)CC2)n1
Outgoing: 1160 nM
